testTarget: hNav1.6 (Homo sapiens (Human), UniProt Q9UQD0)
Sequence (Q9UQD0 whole entry): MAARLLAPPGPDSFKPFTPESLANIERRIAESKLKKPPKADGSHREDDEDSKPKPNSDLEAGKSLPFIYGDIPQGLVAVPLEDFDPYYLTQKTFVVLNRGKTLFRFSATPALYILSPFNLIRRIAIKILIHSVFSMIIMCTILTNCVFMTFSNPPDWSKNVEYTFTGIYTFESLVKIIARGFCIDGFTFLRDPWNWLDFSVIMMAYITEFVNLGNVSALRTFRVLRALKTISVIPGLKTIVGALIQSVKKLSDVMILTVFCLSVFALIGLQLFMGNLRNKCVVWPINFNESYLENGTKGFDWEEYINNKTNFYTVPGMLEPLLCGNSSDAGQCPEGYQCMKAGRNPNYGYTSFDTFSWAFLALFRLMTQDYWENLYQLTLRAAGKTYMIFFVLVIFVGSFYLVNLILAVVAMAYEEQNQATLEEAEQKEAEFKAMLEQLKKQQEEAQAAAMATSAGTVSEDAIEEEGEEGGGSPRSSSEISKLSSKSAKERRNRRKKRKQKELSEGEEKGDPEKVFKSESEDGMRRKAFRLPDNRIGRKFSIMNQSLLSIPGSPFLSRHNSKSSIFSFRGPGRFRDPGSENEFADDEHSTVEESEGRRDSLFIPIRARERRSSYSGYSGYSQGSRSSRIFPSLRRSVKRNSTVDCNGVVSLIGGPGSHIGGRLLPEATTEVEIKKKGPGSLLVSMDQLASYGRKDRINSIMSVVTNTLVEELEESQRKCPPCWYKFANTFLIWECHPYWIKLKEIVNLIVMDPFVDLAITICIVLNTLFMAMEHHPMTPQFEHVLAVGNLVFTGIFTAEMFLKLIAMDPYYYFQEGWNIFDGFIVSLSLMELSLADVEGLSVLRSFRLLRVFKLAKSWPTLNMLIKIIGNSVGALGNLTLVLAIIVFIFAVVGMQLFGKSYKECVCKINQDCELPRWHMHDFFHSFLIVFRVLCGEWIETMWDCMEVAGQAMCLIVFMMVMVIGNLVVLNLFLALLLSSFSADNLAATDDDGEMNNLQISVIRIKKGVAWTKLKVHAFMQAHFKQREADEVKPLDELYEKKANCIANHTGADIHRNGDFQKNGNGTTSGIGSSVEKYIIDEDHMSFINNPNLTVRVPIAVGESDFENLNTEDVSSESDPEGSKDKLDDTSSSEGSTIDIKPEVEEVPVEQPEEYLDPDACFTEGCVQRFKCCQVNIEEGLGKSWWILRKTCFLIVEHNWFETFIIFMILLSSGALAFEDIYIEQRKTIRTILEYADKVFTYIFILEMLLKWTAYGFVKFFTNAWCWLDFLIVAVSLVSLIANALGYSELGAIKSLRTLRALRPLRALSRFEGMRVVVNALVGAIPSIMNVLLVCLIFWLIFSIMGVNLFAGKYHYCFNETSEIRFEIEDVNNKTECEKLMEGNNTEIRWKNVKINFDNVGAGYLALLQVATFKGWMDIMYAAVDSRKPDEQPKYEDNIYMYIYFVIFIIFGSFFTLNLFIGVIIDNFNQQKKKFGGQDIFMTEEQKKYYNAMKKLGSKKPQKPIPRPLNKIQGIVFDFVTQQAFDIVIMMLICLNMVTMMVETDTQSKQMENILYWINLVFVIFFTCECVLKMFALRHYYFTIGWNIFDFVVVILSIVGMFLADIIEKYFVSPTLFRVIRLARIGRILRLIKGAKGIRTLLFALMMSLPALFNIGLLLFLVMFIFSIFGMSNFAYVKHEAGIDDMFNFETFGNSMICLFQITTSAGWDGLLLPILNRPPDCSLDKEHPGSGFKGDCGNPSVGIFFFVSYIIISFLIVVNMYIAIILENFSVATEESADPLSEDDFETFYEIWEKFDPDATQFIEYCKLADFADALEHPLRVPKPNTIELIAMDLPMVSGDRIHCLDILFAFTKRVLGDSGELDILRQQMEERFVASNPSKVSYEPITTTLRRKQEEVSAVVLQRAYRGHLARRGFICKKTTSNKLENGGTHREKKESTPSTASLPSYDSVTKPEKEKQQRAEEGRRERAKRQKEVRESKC
protocolDetails: Automated patch clamp (IonWorks Quattro) block of hNav1.6 channels in CHO cells
Format: cell-based
conditionInfo: Inactivated state block (TP12), read-out: IC50 Nav1.6 Inactivated state block
pIC50: −log10 of the molar value.
readoutType: pIC50

- molecule: "Cc1nn(C)c(C)c1OCCCNCc1cccc(-c2cncnc2)c1 [Compound 645]"
  testTarget: "hNav1.6 (Homo sapiens (Human), UniProt Q9UQD0)"
  readoutType: "pIC50"
  dataValue: "< 5.00"
- molecule: "Cc1nn(C)c(C)c1OCCCNC(c1ccccn1)c1ccccn1 [Compound 644]"
  testTarget: "hNav1.6 (Homo sapiens (Human), UniProt Q9UQD0)"
  readoutType: "pIC50"
  dataValue: "< 5.00"
- molecule: "Cc1cccc(C)c1OCCCNCc1cc(C(C)(C)C)cc(C(C)(C)C)c1 [Compound 559]"
  testTarget: "hNav1.6 (Homo sapiens (Human), UniProt Q9UQD0)"
  readoutType: "pIC50"
  dataValue: "< 5.00"
- molecule: "Cc1cccc(C)c1OCCCNCc1ccc(-c2ccccc2)cc1 [Compound 522]"
  testTarget: "hNav1.6 (Homo sapiens (Human), UniProt Q9UQD0)"
  readoutType: "pIC50"
  dataValue: "< 3.00"
- molecule: "Cc1cccc(C)c1OCCCNCc1noc(C(C)C)n1 [Compound 538]"
  testTarget: "hNav1.6 (Homo sapiens (Human), UniProt Q9UQD0)"
  readoutType: "pIC50"
  dataValue: "< 5.00"
- molecule: "Cc1cccc(C)c1OCCCNCc1cccc(-c2ccc(F)cc2)c1 [Compound 557]"
  testTarget: "hNav1.6 (Homo sapiens (Human), UniProt Q9UQD0)"
  readoutType: "pIC50"
  dataValue: "< 4.52"
- molecule: "Cc1n[nH]c(C)c1OCCCNC(c1ccccn1)c1ccccn1 [Compound 642]"
  testTarget: "hNav1.6 (Homo sapiens (Human), UniProt Q9UQD0)"
  readoutType: "pIC50"
  dataValue: "< 5.00"
- molecule: "Cc1cccc(C)c1OCCCNC(c1ccccc1)c1ccccc1 [Compound 554]"
  testTarget: "hNav1.6 (Homo sapiens (Human), UniProt Q9UQD0)"
  readoutType: "pIC50"
  dataValue: "< 3.00"

----------
IC50 overview
testTarget: hNav1.2 (Homo sapiens (Human))
Sequence (Q99250 whole entry): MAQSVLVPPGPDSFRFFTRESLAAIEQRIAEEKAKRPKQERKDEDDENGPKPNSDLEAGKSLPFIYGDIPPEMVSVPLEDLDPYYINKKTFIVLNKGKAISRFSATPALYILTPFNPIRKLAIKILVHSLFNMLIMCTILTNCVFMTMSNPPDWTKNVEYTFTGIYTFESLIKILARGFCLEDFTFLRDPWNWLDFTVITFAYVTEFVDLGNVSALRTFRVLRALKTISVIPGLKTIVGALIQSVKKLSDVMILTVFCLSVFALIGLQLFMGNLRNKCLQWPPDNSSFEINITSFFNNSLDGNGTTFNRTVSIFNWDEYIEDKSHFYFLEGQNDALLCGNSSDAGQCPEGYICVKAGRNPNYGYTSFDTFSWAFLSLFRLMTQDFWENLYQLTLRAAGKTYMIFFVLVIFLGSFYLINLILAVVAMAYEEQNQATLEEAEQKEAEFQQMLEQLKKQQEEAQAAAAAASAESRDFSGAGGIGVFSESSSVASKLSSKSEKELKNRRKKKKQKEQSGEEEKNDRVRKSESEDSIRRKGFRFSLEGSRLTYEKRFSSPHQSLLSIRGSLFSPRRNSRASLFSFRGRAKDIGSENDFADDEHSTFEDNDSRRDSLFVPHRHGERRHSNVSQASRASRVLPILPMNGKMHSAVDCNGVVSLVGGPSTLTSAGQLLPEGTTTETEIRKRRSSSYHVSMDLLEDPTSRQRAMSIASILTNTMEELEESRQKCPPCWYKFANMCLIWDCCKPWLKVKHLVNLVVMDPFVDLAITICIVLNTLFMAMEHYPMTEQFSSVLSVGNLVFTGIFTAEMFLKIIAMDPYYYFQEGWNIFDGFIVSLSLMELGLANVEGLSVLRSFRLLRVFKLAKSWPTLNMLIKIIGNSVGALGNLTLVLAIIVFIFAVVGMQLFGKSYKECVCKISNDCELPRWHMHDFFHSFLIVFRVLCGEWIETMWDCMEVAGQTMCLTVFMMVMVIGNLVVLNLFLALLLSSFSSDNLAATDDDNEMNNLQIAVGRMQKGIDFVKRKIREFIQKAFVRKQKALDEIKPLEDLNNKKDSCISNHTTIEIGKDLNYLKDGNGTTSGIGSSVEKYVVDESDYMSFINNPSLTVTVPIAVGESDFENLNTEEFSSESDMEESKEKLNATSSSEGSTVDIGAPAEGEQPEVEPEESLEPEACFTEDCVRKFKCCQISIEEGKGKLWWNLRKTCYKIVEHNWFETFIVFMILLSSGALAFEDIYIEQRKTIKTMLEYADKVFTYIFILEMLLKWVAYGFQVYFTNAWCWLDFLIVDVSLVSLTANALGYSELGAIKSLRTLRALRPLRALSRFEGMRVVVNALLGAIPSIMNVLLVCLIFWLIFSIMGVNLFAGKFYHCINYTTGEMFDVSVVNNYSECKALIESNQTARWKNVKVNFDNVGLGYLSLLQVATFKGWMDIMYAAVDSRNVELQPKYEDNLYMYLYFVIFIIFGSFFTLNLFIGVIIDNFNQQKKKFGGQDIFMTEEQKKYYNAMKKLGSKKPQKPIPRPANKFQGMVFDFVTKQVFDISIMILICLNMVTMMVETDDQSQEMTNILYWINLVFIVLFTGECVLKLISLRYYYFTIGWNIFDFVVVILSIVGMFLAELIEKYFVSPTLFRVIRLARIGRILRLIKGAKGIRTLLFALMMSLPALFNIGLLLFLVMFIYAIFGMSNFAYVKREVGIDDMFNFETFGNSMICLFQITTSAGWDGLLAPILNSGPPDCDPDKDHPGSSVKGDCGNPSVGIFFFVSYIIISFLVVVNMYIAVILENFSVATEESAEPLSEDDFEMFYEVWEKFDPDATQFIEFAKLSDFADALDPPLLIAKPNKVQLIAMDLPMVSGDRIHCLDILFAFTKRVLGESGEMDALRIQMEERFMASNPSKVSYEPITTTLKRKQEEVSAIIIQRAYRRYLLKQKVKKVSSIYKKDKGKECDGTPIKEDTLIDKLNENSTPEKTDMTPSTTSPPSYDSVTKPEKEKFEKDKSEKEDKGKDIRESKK
protocolDetails: Automated patch clamp (IonWorks Quattro) block of hNav1.2 channels in CHO cells
Format: cell-based
conditionInfo: 10 Hz frequency-dependent block (TP11), read-out: IC50 Nav1.2 10 Hz block

- chemSmiles: "CC(=O)Nc1ccc(CNCCCOc2c(C)cccc2C)cc1"
  IC50: "> 10 µM"
- chemSmiles: "Cc1nn(C)c(C)c1OCCCNC(c1ccccn1)c1ccccn1"
  IC50: "> 10 µM"
- chemSmiles: "Cc1cccc(C)c1OCCCNCc1ccc(-c2ccccc2)cc1"
  IC50: "> 1000 µM"
- chemSmiles: "Cc1cccc(C)c1OCCCNCc1cc(Cl)c(O)c(Cl)c1"
  IC50: "> 10 µM"
- chemSmiles: "Cc1n[nH]c(C)c1OCCCNC(c1ccccn1)c1ccccn1"
  IC50: "> 10 µM"
- chemSmiles: "Cc1cccc(C)c1OCCCNCc1cc(C(C)(C)C)cc(C(C)(C)C)c1"
  IC50: "> 10 µM"
- chemSmiles: "Cc1cccc(C)c1OCCCNCc1c2ccccc2nn1Cc1ccccc1"
  IC50: "> 10 µM"
- chemSmiles: "Cc1cccc(C)c1OCCCNCc1noc(C(C)C)n1"
  IC50: "> 10 µM"

----------
testTarget: hNav1.6 (Homo sapiens (Human))
protocolDetails: Automated patch clamp (IonWorks Quattro) block of hNav1.6 channels in CHO cells
Type: cell-based
conditionInfo: 10 Hz frequency-dependent block (TP11), read-out: IC50 Nav1.6 10 Hz block
Excerpt: FIG. 1 depicts the voltage sequence used to measure inhibitory activity of compounds as described in Example 3. An automated patch clamp screening assay was used to measure the inhibitory effect (potency) of compounds in three conformational states of the sodium channel: (1) the tonic state (TP1); (2) the frequency-dependent (10 Hz) state (TP11) and (3) the inactivated state (TP12). […]
readoutType: IC50

- chemSmiles: "Cc1cccc(C)c1OCCCNC(c1ccccc1)c1ccccc1"
  dataValue: "> 1000 µM"
- chemSmiles: "Cc1nn(C)c(C)c1OCCCNCc1cccc(-c2cncnc2)c1"
  dataValue: "> 10 µM"
- chemSmiles: "CC(=O)Nc1ccc(CNCCCOc2c(C)cccc2C)cc1"
  dataValue: "> 10 µM"

----------
testTarget: UniProt Q9UQD0
protocolDetails: Automated patch clamp (IonWorks Quattro) block of hNav1.6 channels in CHO cells
Assay type: cell-based
conditionInfo: Tonic block (TP1), read-out: IC50 Nav1.6 Tonic block
pIC50: −log10 of the molar value.

- chemSmiles: "Cc1n[nH]c(C)c1OCCCNC(c1ccccn1)c1ccccn1"
  pIC50: "< 5.00"
- chemSmiles: "CC(=O)Nc1ccc(CNCCCOc2c(C)cccc2C)cc1"
  pIC50: "< 5.00"
- chemSmiles: "Cc1cccc(C)c1OCCCNCc1cccc(-c2ccccc2)c1"
  pIC50: "< 3.00"
- chemSmiles: "Cc1cccc(C)c1OCCCNC(c1ccccc1)c1ccccc1"
  pIC50: "< 3.00"
- chemSmiles: "Cc1cccc(C)c1OCCCNCc1c2ccccc2nn1Cc1ccccc1"
  pIC50: "< 5.00"

----------
testTarget: hNav1.6 (Homo sapiens (Human))
protocolDetails: Automated patch clamp (IonWorks Quattro) block of hNav1.6 channels in CHO cells
Type: cell-based
conditionInfo: 10 Hz frequency-dependent block (TP11), read-out: IC50 Nav1.6 10 Hz block
pIC50: −log10 of the molar value.

- compound: "Cc1cccc(C)c1OCCCNCc1cccc(-c2ccccc2)c1 [Compound 535]"
  pIC50: "< 3.00"
- compound: "Cc1cccc(C)c1OCCCNCc1ccc(-c2ccccc2)cc1 [Compound 522]"
  pIC50: "< 3.00"
- compound: "Cc1cccc(C)c1OCCCNCc1cccc(-c2ccc(F)cc2)c1 [Compound 557]"
  pIC50: "< 4.52"
- compound: "Cc1cccc(C)c1OCCCNCc1cc(C(C)(C)C)cc(C(C)(C)C)c1 [Compound 559]"
  pIC50: "< 5.00"
- compound: "Cc1cccc(C)c1OCCCNCc1cccc(-c2ccccc2F)c1 [Compound 556]"
  pIC50: "< 4.52"
- compound: "Cc1cccc(C)c1OCCCNCc1ccc(S(N)(=O)=O)cc1 [Compound 532]"
  pIC50: "< 5.00"
- compound: "Cc1cccc(C)c1OCCCNCc1c2ccccc2nn1Cc1ccccc1 [Compound 555]"
  pIC50: "< 5.00"
- compound: "Cc1nn(C)c(C)c1OCCCNC(c1ccccn1)c1ccccn1 [Compound 644]"
  pIC50: "< 5.00"
- compound: "Cc1cccc(C)c1OCCCNCc1cc(Cl)c(O)c(Cl)c1 [Compound 504]"
  pIC50: "< 5.00"
- compound: "Cc1n[nH]c(C)c1OCCCNCc1cccc(-c2cncnc2)c1 [Compound 643]"
  pIC50: "< 5.00"
